For each entry below, report its TGI value.
System: MDA-MB-231 breast
Assay: NCI tumour cell line growth inhibition, 48 h

Examples from the recorded data:
COMPOUND | TGI
Cn1c(=O)c2c(nc3sc4ccccc4c(=O)n32)n(C)c1=O | > 100 µM
CC(=O)/C=C/c1ccc(OCc2ccc(Cl)cc2)cc1 | > 1000 µM
CCN1CCC(CNC(=O)c2ccc(N)cc2)N1CC (configuration not stated) | > 100 µM
CNc1ncnc2c1nc(NC1CCCC1)n2C1OC(CO)C(O)C1O (configuration not stated) | > 100 µM
c1ccc2c(c1)cc1n2CCc2c-1[nH]c1ccccc21 | > 10 µM
CC(Oc1ccccc1)C(=O)NNC(=O)OC(C)(C)C (configuration not stated) | > 100 µM

GET /values?readout=TGI&system=MDA-MB-231 breast&item= CCC(C)C(=O)OCC(=O)c1ccc(-c2ccccc2)cc1 (configuration not stated)
> 100 µM

====

System: HOP-92 NSCLC
Assay: NCI tumour cell line growth inhibition, 48 h
PROPERTY: TGI

CHEMICAL STRUCTURE | PROPERTY | EXPERIMENTAL RESULT
c1ccc(OCc2nnc3n2N=C(c2ccccc2)CS3)cc1 | TGI | > 100 µM
O=c1[nH]c(NCc2ccc(Cl)cc2)nc2nc[nH]c12 | TGI | > 100 µM
C/C(=N\NC(=S)N1CCCCCC1)c1cccc2cccnc12 | TGI | > 100 µM

--- query ---
May I ask what TGI has been recorded for "c1ccc2c(c1)cc1n2CCc2c-1[nH]c1ccccc21" ?
> 10 µM

====

Test system: LOX IMVI melanoma
Experiment: NCI tumour cell line growth inhibition, 48 h; in the data active means GI50 below about 0.43 µM; inactive means the rest
Write down the outcome that applies. Available outcomes: active, inactive

Would you please look over these solved cases?
COMPOUND | SYSTEM NAME | CATEGORY LABEL
CCCCNc1ccc(Nc2ccccc2)cc1 | LOX IMVI melanoma | inactive
COc1cc(C)c2sc3ccccc3c(=O)c2c1NCCN(C)C | LOX IMVI melanoma | inactive
CN1CCN(c2nc(-c3csc(-c4cccs4)n3)cc3ccccc23)CC1 | LOX IMVI melanoma | inactive

Please share the test call associated with "Cc1[nH]c2cc(F)ccc2c1-c1nc2c3cccnc3c3ncccc3c2[nH]1" .
active

Please share the test call associated with CN(CCCCCl)P(=O)(OCc1ccc([N+](=O)[O-])o1)OCC1OC(n2cnc([N+](=O)[O-])c2N)C(O)C1O (stereo not given) .
inactive

====

For each entry below, report its TGI value.
System: HCC-2998 colon
Experiment: NCI tumour cell line growth inhibition, 48 h

Examples from the recorded data:
COMPOUND | TGI
CCOC(=O)c1c(SC(=O)c2ccc(OC)cc2)n(-c2ccccc2)c(=S)n(-c2ccccc2)c1=O | > 100 µM
COc1ccc(-c2c(-c3ccccc3)c(C)nc3nc(SC)nc(SC)c23)cc1OC | > 100 µM
O=C(O)c1c(Br)c(Br)c(Br)c(Br)c1C1c2ccc(O)cc2Oc2cc(O)ccc21 | > 100 µM
OC1COC2CC(Nc3ccccn3)OC12 (stereo unspecified) | > 100 µM
CC(=O)c1ccc(NC(=O)COC(=O)c2cccc3c(=O)c4ccccc4[nH]c23)cc1 | > 100 µM

May I ask what TGI has been recorded for Cc1ccc(C2NC(=O)c3ccccc3N2)c(C)c1 (stereo unspecified) ?
> 61.1 µM

====

Tested on: SNB-19 CNS
Experiment: NCI tumour cell line growth inhibition, 48 h
For each entry below, report its TGI value.

Examples from the recorded data:
COMPOUND | SYSTEM NAME | PROPERTY | EXPERIMENTAL RESULT
O=c1c(Cc2ccc(Cl)cc2)nnc2sc(-c3ccc(-c4ccc(Cl)cc4Cl)o3)nn12 | SNB-19 CNS | TGI | > 100 µM
CC([O-])=C1C(=O)c2ccccc2C1=O.CC([O-])=C1C(=O)c2ccccc2C1=O.CC[O-].CC[O-].[Ti+4] | SNB-19 CNS | TGI | > 100 µM

GET /values?readout=TGI&system=SNB-19 CNS&item= NC(Cc1ccc2nc3c4ccccc4c(=O)cc-3oc2c1)C(=O)O (stereo not drawn)
> 100 µM

====

Tested on: SK-MEL-5 melanoma
Assay: NCI tumour cell line growth inhibition, 48 h
For each entry below, report its TGI value.
Answers are plain numbers, in µM.

Examples from the recorded data:
MOLECULE | UNIT SPEC | TGI
CC1OC(CC(=O)O)CC2=C1C(=O)c1c(O)cccc1C2=O (centres undefined) | µM | 1.15
COc1cnc2c(c1)C(=O)c1c-2n(CCCN2CCC(O)CC2)c(=O)c2cc(Cl)ccc12 | µM | 20.4

--- query ---
May I ask what TGI has been recorded for "CN(C)c1ccc(/C=N/S(=O)(=O)c2ccc(-n3c(-c4ccccc4)nc4c(Br)cc(Br)cc4c3=O)cc2)cc1" ?
38.3

====

Tested on: K-562 leukemia
Assay: NCI tumour cell line growth inhibition, 48 h
PROPERTY: TGI

Examples from the recorded data:
MOLECULE | TGI
NC1(Cc2ccc(Cl)cc2)CCN(c2ncnc3[nH]ccc23)CC1 | 19.4 µM
O=C(SCc1cccc2ccccc12)c1ccc(Cl)cc1 | > 100 µM
CN(CCC(=O)/C(=C\c1ccccc1)c1ccc(Cl)cc1)Cc1ccccc1 | 13.1 µM
C#CC(O)/C=C/CCCCCCC#CC/C=C\CC#CCCCCCCCCC(O)C#C (centres undefined) | > 21.6 µM
COc1ccc(C(=O)C#Cc2c[nH]c(=O)[nH]c2=O)cc1 | 37.3 µM

Could you report TGI for every entry in the following list?
1. O=C1C(c2c(O)[nH]c3ccc(Br)cc23)=Nc2ccc(Br)cc21
2. COC(=O)c1cc(OC)c(OC)c(OC)c1-c1cc2c(cc1C=O)OCO2
3. NC(=O)c1sc(-n2cnc3cc(C(F)(F)F)ccc32)cc1OCc1ccccc1Br
4. O=C(Nc1ccc(S(=O)(=O)/N=c2\ncccn2C(=O)C(C(F)(F)F)C(F)(F)F)cc1)C(C(F)(F)F)C(F)(F)F

["> 100 µM", "> 10 µM", "> 25 µM", "> 100 µM"]

====

Tested on: M19-MEL melanoma
Test: NCI tumour cell line growth inhibition, 48 h
For each entry below, report its TGI value.

Examples from the recorded data:
COMPOUND | TGI
COc1cc(C(C)O)c[n+](CCC2CNc3ccccc32)c1 (stereo not drawn) | > 100 µM
Cc1ccc(NC(=O)CCc2n[nH]c(=S)o2)cc1 | > 100 µM

--- query ---
May I ask what TGI has been recorded for "OCCN(CCO)c1cccc(N(CCO)CCO)n1" ?
> 100 µM

====

Tested on: SF-539 CNS
Assay: NCI tumour cell line growth inhibition, 48 h
PROPERTY: TGI

Examples from the recorded data:
COMPOUND | PROPERTY | EXPERIMENTAL RESULT
C#CCN(Cc1ccc2nc(-c3ccccc3)c(N)nc2c1)c1cc(OC)c(OC)c(OC)c1 | TGI | > 100 µM
OC1COC2CC(Nc3ccccn3)OC12 (stereo not drawn) | TGI | > 100 µM

GET /values?readout=TGI&system=SF-539 CNS&item= "COc1nc2ccc(COc3ccc(C(=O)O)cc3)cc2nc1OC"
> 100 µM

====

For each entry below, report its TGI value.
Test system: NCI-H460 lung
Experiment: NCI tumour cell line growth inhibition, 48 h

Examples from the recorded data:
COMPOUND | SYSTEM NAME | TGI
CC(C)c1ccccc1SCc1cc(=O)cc(CSc2ccccc2C(C)C)o1 | NCI-H460 lung | 69.7 µM
CC1OC(CC(=O)O)CC2=C1C(=O)c1c(O)cccc1C2=O (configuration not stated) | NCI-H460 lung | 3.58 µM
Cc1ccc2c(c1)nc1n2C(N)=Nc2ccccc2S1 | NCI-H460 lung | > 100 µM
O=[N+]([O-])c1cc2no[n+]([O-])c2cc1N1CCCCC1 | NCI-H460 lung | 56.6 µM
Cc1cccc2c3c(sc12)C(c1ccc(F)cc1)C(C#N)=C(N)O3 (configuration not stated) | NCI-H460 lung | 2.52 µM

Could you report TGI for every entry in the following list?
1. CCC(C)C(=O)OCC(=O)c1ccc(-c2ccccc2)cc1 (configuration not stated)
2. O=C1C(c2c(O)[nH]c3ccc(Br)cc23)=Nc2ccc(Br)cc21
3. CCC(C)C1=C(O)[N+]2([O-])Oc3ccc(-c4c(O)c(O)c(-c5ccc(OC(C)=O)cc5)c(OC(C)=O)c4OC(C)=O)cc3OC2(C(C)CC)C(=O)N1O (configuration not stated)
4. COC1(CC[C@@H](C)COC2OC(CO)C(O)C(O)C2O)O[C@H]2C[C@H]3[C@@H]4CC=C5C[C@@H](OC6OC(CO)C(O)C(OC7OC(CO)C(O)C(O)C7O)C6OC6OC(C)C(O)C(O)C6O)CC[C@]5(C)[C@H]4CC[C@]3(C)[C@H]2[C@@H]1C (some centres not stated)
5. CCn1c(CCl)nc2c1C(=O)c1ccccc1C2=O
6. C[C@@H](CO)NC(=O)c1cc(-c2ccc(Cl)cc2)nn(-c2cnn(C)c2)c1=O
7. COc1cccc(N2C(=O)C3C4C=C5c6ccccc6N(c6ccccc6)C5(C3C2=O)[C@H]2C(=O)N(c3cccc(OC)c3)C(=O)[C@@H]42)c1 (some centres not stated)

> 100 µM
> 100 µM
> 50 µM
14.8 µM
3.9 µM
> 100 µM
> 100 µM

Could you report TGI for every entry in the following list?
1. O=c1c(Cc2ccc(Cl)cc2)nnc2sc(-c3ccc(-c4ccc(Cl)cc4Cl)o3)nn12
2. CCCCCCNCc1cc(C(C)(C)C)cc(CNCCCCCC)c1O
3. CCc1nc(N)nc(N)c1-c1ccc(Cl)c(N=[N+]=[N-])c1
4. NC(=S)N1N=C2c3ccccc3CC[C@H]2[C@@H]1c1ccc(Cl)cc1
5. Nc1nc(N)c2nc3c(nc2n1)CCCCCCCCCC3
6. C=C=CC(NC(=O)c1ccccc1)(C(=O)O)C(F)(F)F (configuration not stated)
7. CC([O-])=C1C(=O)c2ccccc2C1=O.CC([O-])=C1C(=O)c2ccccc2C1=O.CC[O-].CC[O-].[Ti+4]

1. > 100 µM
2. 3.34 µM
3. > 81.7 µM
4. > 100 µM
5. > 100 µM
6. > 100 µM
7. > 100 µM

Could you report TGI for every entry in the following list?
1. CCOc1ccc2c(c1)c(CC(=O)O)cn2C
2. CCN1CCC(CNC(=O)c2ccc(N)cc2)N1CC (configuration not stated)
3. COc1ccc(NCC(=O)Nn2c(-c3ccccc3)nc3ccccc3c2=O)cc1
4. NC(CSSCC(N)C(=O)O)C(=O)O (configuration not stated)
5. COC(=O)Cc1cc(=O)[nH]c2c1C(=O)CCC2
6. C[C@]12CC(c3ccccc3O1)C(C(=O)Nc1nc(C34CC5CC(CC(C5)C3)C4)cs1)C(=O)N2 (some centres not stated)
7. CC1OC(OC2C(O[C@H]3CC[C@@]4(C)C(=CC[C@H]5[C@@H]6C[C@@H]7O[C@]8(CC[C@@H](C)CO8)[C@@H](C)[C@@H]7[C@@]6(C)CC[C@@H]54)C3)OC(CO)C(O)C2O)C(O)C(O)C1O (some centres not stated)
8. CCCCCCCCCCCCCC[n+]1ccc(C)cc1

["> 100 µM", "> 100 µM", "> 100 µM", "> 100 µM", "> 100 µM", "> 100 µM", "2.34 µM", "2.23 µM"]
